IC50: recorded values
# measuredTarget: human NCX1 (Homo sapiens)
# Construct: expressed in transfected cells
# assayInfo: Inhibition of Ca2+ influx into cells (NCX1 reverse mode), FLIPR Fluo-4 assay
# Format: cell-based
# testParameters: inhibition of NCX1 in reverse mode (Ca2+ influx into cells); read-out: NCX1rv IC50
parameter: IC50 (nM)

compound="O=C(N[C@H]1CC[C@H](Oc2ccc3c(c2)CCC(c2ccccc2)O3)CC1)C1CCC1 (relative stereo)" unitstring=nM numericreadout=200
compound="Cc1ccnn1CCC(=O)N[C@H]1CC[C@H](Oc2ccc3c(c2)CCC(c2ccccc2)O3)CC1 (relative stereo)" unitstring=nM numericreadout=200
compound="O=C(NCc1ccnc(Cl)c1)C1CCC(Oc2ccc3c(c2)CCC(c2ccccc2F)O3)CC1 (stereo not shown)" unitstring=nM numericreadout=1300
compound=NCC(=O)N[C@H]1CC[C@H](Oc2ccc3c(c2)CC[C@@H](c2ccccc2)O3)CC1 unitstring=nM numericreadout=200

* * *

# measuredTarget: human NCX1 (Homo sapiens)
# Construct: expressed in transfected cells
# assayInfo: Inhibition of Ca2+ influx into cells (NCX1 reverse mode), FLIPR Fluo-4 assay
# Format: cell-based
# testParameters: inhibition of NCX1 in reverse mode (Ca2+ influx into cells); read-out: NCX1rv IC50
Label MET when IC50 is strictly below 1000 nM; at or above that, label NOT MET.

compound="CSCC(=O)N[C@H]1CC[C@H](Oc2ccc3c(c2)CCC(c2ccccc2F)O3)CC1 (relative stereo) [compound 241]" measuredtarget="human NCX1 (Homo sapiens)" classlabel=MET
compound="c1ccc(C2CCc3cc(OC4CCC(NCCSC5CCCCC5)CC4)ccc3O2)cc1 (centres unmarked) [compound 117]" measuredtarget="human NCX1 (Homo sapiens)" classlabel="NOT MET"
compound="Cc1ccccc1C1CCc2cc(OC3CCC(NCCN4CCSCC4)CC3)ccc2O1 (centres unmarked) [compound 209]" measuredtarget="human NCX1 (Homo sapiens)" classlabel="NOT MET"
compound="Cc1cc(CN(Cc2cc(C)n(C)n2)[C@H]2CC[C@H](Oc3ccc4c(c3)CCC(c3ccccc3)O4)CC2)nn1C (some centres unmarked) [compound 87]" measuredtarget="human NCX1 (Homo sapiens)" classlabel="NOT MET"
compound="Fc1ccccc1C1CCc2cc(OC3CCC(NC4CCCC4)CC3)ccc2O1 (centres unmarked) [compound 218]" measuredtarget="human NCX1 (Homo sapiens)" classlabel="NOT MET"
compound="CSC(C)CCNC1CCC(Oc2ccc3c(c2)CCC(c2c(C)cccc2C)O3)CC1 (centres unmarked) [compound 165]" measuredtarget="human NCX1 (Homo sapiens)" classlabel="NOT MET"
compound="COc1cccc(C2CCc3cc(OC4CCC(C(=O)NCc5ccno5)CC4)ccc3O2)c1F (centres unmarked) [compound 295]" measuredtarget="human NCX1 (Homo sapiens)" classlabel="NOT MET"
compound="CCCC1(O)CCC(Oc2ccc3c(c2)CCC(c2ccccc2)O3)CC1 (centres unmarked) [compound 90]" measuredtarget="human NCX1 (Homo sapiens)" classlabel=MET

* * *

# measuredTarget: human NCX1 (Homo sapiens)
# Construct: expressed in transfected cells
# assayInfo: Inhibition of Ca2+ influx into cells (NCX1 reverse mode), FLIPR Fluo-4 assay
# Type: cell-based
# testParameters: inhibition of NCX1 in reverse mode (Ca2+ influx into cells); read-out: NCX1rv IC50
Structures can show the parent of a compound that is named as a salt.
Each entry below carries its recorded IC50.
parameter: IC50

compound="CSC(C)CCNC(=O)C1CCC(Oc2ccc3c(c2)CCC(c2cccc(F)c2C)O3)CC1 (centres unmarked)" measuredtarget="human NCX1 (Homo sapiens)" parameter=IC50 result="400 nM"
compound="CC(C)(C)CNC1CCC(Oc2ccc3c(c2)CCC(c2ccccc2)O3)CC1 (centres unmarked) [compound 161]" measuredtarget="human NCX1 (Homo sapiens)" parameter=IC50 result="1300 nM"
compound="CCCC1(NC2CCC(Oc3ccc4c(c3)CCC(c3ccccc3)O4)CC2)CC1 (centres unmarked)" measuredtarget="human NCX1 (Homo sapiens)" parameter=IC50 result="2400 nM"
compound="CCC(N)C1(CC)CCC(Oc2ccc3c(c2)CCC(c2ccccc2)O3)CC1 (centres unmarked) [compound 11, hydrochloride]" measuredtarget="human NCX1 (Homo sapiens)" parameter=IC50 result="2800 nM"
compound="O=C(CC(F)(F)F)N[C@H]1CC[C@H](Oc2ccc3c(c2)CCC(c2ccccc2F)O3)CC1 (relative stereo)" measuredtarget="human NCX1 (Homo sapiens)" parameter=IC50 result="100 nM"
compound="Cc1noc(CCC(=O)N[C@H]2CC[C@H](Oc3ccc4c(c3)CCC(c3ccccc3F)O4)CC2)n1 (relative stereo)" measuredtarget="human NCX1 (Homo sapiens)" parameter=IC50 result="200 nM"
compound="OC1CCC(Oc2ccc3c(c2)CCC(c2ccccc2)O3)CC1 (centres unmarked)" measuredtarget="human NCX1 (Homo sapiens)" parameter=IC50 result="300 nM"
compound="N[C@H]1CC[C@H](Oc2ccc3c(c2)CCC(c2ccccc2F)O3)CC1 (relative stereo) [compound 176, hydrochloride]" measuredtarget="human NCX1 (Homo sapiens)" parameter=IC50 result="1300 nM"
compound="NCC(=O)N[C@H]1CC[C@H](Oc2ccc3c(c2)CC[C@H](c2ccccc2)O3)CC1 [compound 160, hydrochloride]" measuredtarget="human NCX1 (Homo sapiens)" parameter=IC50 result="1100 nM"
compound="Cc1cccc(C)c1C1CCc2cc(O[C@H]3CC[C@H](NC(=O)CCn4cccn4)CC3)ccc2O1 (relative stereo)" measuredtarget="human NCX1 (Homo sapiens)" parameter=IC50 result="7100 nM"
compound="Cc1cc(C(=O)N[C@H]2CC[C@H](Oc3ccc4c(c3)CCC(c3ccccc3F)O4)CC2)n[nH]1 (relative stereo)" measuredtarget="human NCX1 (Homo sapiens)" parameter=IC50 result="300 nM"
compound="Cc1ccccc1C1CCc2cc(O[C@H]3CC[C@H](N(CC4CCOC4)CC4CCOC4)CC3)ccc2O1 (relative stereo)" measuredtarget="human NCX1 (Homo sapiens)" parameter=IC50 result="5300 nM"
compound="CSCCCN[C@H]1CC[C@H](Oc2ccc3c(c2)CCC(c2ccccc2)O3)CC1 (some centres unmarked)" measuredtarget="human NCX1 (Homo sapiens)" parameter=IC50 result="500 nM"
compound="Cc1c(F)cccc1C1CCc2cc(OC3CCC(C(=O)NC[C@@H]4CCCC[C@H]4O)CC3)ccc2O1 (some centres unmarked)" measuredtarget="human NCX1 (Homo sapiens)" parameter=IC50 result="800 nM"

* * *

# measuredTarget: human NCX1 (Homo sapiens, UniProt P32418)
# Construct: expressed in transfected cells
# assayInfo: Inhibition of Ca2+ influx into cells (NCX1 reverse mode), FLIPR Fluo-4 assay
# Format: cell-based
# testParameters: at 10 μM; NCX1 reverse mode; IC50 value not determined; read-out: Inhibition in % at 10 μM (NCX1rv)
parameter: inhibition at 10 µM (%)

compound="CCC(COC)NC1CCC(Oc2ccc3c(c2)CCC(c2ccccc2C)O3)CC1 (centres unmarked)" numericreadout=96
compound="Cc1ccccc1C1CCc2cc(OC3CCC(NCCCC4CCOC4)CC3)ccc2O1 (centres unmarked)" numericreadout=97
compound="Cc1ccccc1C1CCc2cc(OC3CCC(NC4CCOCC4)CC3)ccc2O1 (centres unmarked)" numericreadout=96
compound="COCC(C)(C)CNC1CCC(Oc2ccc3c(c2)CCC(c2ccccc2C)O3)CC1 (centres unmarked)" numericreadout=94
compound="Cc1ccccc1C1CCc2cc(OC3CCC(NCCC4CCOCC4)CC3)ccc2O1 (centres unmarked)" numericreadout=97
compound="Cc1ccccc1C1CCc2cc(OC3CCC(NCCCOC4CCCC4)CC3)ccc2O1 (centres unmarked)" numericreadout=71
compound="CCOCCCNC1CCC(Oc2ccc3c(c2)CCC(c2ccccc2C)O3)CC1 (centres unmarked)" numericreadout=98
compound="Cc1ccccc1C1CCc2cc(OC3CCC(NCCSC(C)C)CC3)ccc2O1 (centres unmarked)" numericreadout=85

* * *

# measuredTarget: human NCX1 (Homo sapiens)
# Construct: expressed in transfected cells
# assayInfo: Inhibition of Ca2+ influx into cells (NCX1 reverse mode), FLIPR Fluo-4 assay
# Assay type: cell-based
# testParameters: at 10 μM; NCX1 reverse mode; IC50 value not determined; read-out: NCX1rv inhibition in % at 10 μM
parameter: inhibition at 10 µM (%)

compound="Cc1ccccc1C1CCc2cc(OC3CCC(NCCCOC(C)C)CC3)ccc2O1 (stereo not shown) [compound 190]" parameter="inhibition at 10 µM" numericreadout=93
compound="COCC(C)NC1CCC(Oc2ccc3c(c2)CCC(c2ccccc2C)O3)CC1 (stereo not shown) [compound 188]" parameter="inhibition at 10 µM" numericreadout=96
compound="COCCNC1CCC(Oc2ccc3c(c2)CCC(c2ccccc2C)O3)CC1 (stereo not shown) [compound 189]" parameter="inhibition at 10 µM" numericreadout=100
compound="Cc1ccccc1C1CCc2cc(OC3CCC(NCC4CCCO4)CC3)ccc2O1 (stereo not shown) [compound 187]" parameter="inhibition at 10 µM" numericreadout=99
compound="CSCCNC1CCC(Oc2ccc3c(c2)CCC(c2ccccc2C)O3)CC1 (stereo not shown) [compound 192]" parameter="inhibition at 10 µM" numericreadout=98
compound="CCSCCNC1CCC(Oc2ccc3c(c2)CCC(c2ccccc2C)O3)CC1 (stereo not shown) [compound 191]" parameter="inhibition at 10 µM" numericreadout=95
compound="COCCCNC1CCC(Oc2ccc3c(c2)CCC(c2ccccc2C)O3)CC1 (stereo not shown) [compound 193]" parameter="inhibition at 10 µM" numericreadout=99
